# FLIPR IC50, GRO-α induced intracellular calcium release per record follows
Target or test system: T1, Cynomolgus CXCR2 (cynomolgus, UniProt Q28519 3-353 (rhesus entry))
T1 chain: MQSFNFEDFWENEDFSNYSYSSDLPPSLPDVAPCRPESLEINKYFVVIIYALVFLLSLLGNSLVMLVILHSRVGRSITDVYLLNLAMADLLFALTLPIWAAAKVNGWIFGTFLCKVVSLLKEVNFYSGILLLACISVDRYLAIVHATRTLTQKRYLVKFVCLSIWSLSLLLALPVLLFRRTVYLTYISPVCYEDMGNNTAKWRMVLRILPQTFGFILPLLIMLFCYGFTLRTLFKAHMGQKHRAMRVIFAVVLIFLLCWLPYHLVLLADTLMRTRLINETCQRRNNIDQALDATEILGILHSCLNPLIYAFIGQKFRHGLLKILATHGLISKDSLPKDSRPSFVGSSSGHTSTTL
Method notes: cell-based or functional assay
Readout type: FLIPR IC50, GRO-α induced intracellular calcium release (nM)

# Binder, Readout value
records = [
    ("127D01 (VHH, not shown: small tags and cut ends) VHH: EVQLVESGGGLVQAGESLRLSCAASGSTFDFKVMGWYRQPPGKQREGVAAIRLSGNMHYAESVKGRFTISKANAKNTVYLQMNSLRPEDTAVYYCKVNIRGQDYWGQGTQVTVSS", 753),
    ("54B12 (VHH, not shown: small tags and cut ends) VHH: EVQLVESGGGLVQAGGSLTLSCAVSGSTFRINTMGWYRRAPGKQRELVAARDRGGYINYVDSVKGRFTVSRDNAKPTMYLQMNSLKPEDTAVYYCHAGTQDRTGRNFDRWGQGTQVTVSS", 4080),
    ("163D02 (VHH, not shown: small tags and cut ends) VHH: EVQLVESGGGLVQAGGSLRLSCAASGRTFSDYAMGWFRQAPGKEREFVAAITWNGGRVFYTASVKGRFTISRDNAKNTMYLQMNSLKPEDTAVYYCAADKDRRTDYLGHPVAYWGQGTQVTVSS", 37.2),
    ("097A09 (VHH, not shown: small tags and cut ends) VHH: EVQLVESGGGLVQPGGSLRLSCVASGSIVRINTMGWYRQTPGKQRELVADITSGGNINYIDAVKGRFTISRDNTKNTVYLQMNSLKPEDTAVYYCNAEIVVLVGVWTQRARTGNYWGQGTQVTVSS", 640),
    ("163E03 (VHH, not shown: small tags and cut ends) VHH: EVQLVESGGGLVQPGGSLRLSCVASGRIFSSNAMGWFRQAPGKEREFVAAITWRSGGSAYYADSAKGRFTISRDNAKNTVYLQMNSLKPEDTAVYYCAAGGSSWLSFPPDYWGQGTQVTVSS", 158),
    ("2B2 (VHH, not shown: small tags and cut ends) VHH: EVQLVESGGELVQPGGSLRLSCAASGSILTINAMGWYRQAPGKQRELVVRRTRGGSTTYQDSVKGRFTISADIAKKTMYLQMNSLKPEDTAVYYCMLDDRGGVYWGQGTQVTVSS", 3850),
]
